- Tested Target: T1, recombinant endotheliase 1 (human, UniProt Q9UL52 192-423, limits assumed)
- T1 construct: also called ET1; rET1
- T1 sequence: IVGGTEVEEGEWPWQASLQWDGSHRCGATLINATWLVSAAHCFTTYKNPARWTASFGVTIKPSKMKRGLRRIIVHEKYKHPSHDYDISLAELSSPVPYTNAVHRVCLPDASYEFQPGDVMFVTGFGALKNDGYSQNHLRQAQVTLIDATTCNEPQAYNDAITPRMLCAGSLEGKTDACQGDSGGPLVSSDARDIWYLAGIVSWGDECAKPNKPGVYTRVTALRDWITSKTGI
- Assay Overview: inhibition of ET1 activity
pKi: −log10 of the molar value. No end group written: not given here.

Binder: AGKWHCKGYAPDCQMWGT (not fully specified (bridges); cysteine pairing not given here, synthetic peptide) [DX-1107]
pKi: 6.30
